Target: Cannabinoid receptor 2 (Homo sapiens, UniProt P34972)
Sequence (P34972 whole entry): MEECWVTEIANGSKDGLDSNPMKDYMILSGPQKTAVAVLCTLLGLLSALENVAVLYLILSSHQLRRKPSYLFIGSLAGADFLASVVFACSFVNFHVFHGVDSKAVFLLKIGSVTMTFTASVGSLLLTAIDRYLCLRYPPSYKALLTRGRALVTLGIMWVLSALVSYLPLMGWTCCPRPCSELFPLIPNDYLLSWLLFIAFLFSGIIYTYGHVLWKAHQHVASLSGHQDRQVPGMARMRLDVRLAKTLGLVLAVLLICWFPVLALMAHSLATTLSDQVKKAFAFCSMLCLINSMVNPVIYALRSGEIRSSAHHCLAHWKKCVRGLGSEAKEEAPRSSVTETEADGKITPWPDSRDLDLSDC
Experiment: Agonist activity at human recombinant CB2 receptor expressed in CHO-K1 cells assessed as inhibition of forskolin-stimulated intracellular cAMP level
Format: functional, cell-based
pEC50: −log10 of the molar value.
measurementName: pEC50

• O=C(CCc1nc(-c2ccc(F)cc2Cl)no1)Nc1cnc2ncc(Cl)cc2c1 = 9.22
• N#Cc1cc(NC(=O)CCc2nc(-c3ccc(F)cc3Cl)no2)cnc1OCC(F)(F)F = 7.51
• CCn1c2ccccc2c2cc(NC(=O)CCc3nc(-c4ccc(F)cc4)no3)ccc21 = 8.32
• O=C(CCc1nc(-c2ccc(F)cc2Cl)no1)Nc1nc2ccc(OC(F)(F)F)cc2s1 = 8.19
• O=C(CCc1nc(-c2ccc(F)cc2Cl)no1)Nc1ccc(C(F)(F)F)c(Cl)c1 = 7.60
• Fc1ccc(-c2noc(CCCNc3cnc4ccc(Cl)cc4c3)n2)c(Cl)c1 = 8.66
• CC(C)(C)c1ncc(OCCCc2nc(-c3ccc(F)cc3Cl)no2)cn1 = 7.62
• O=C(CCc1nc(-c2ccc(F)cc2Cl)no1)Nc1nnc(N2CCCCC2)s1 = 9.10
• CCn1c2ccccc2c2cc(NC(=O)CCc3nc(C4CCOCC4)no3)ccc21 = 8.62
• CC(C)(C)c1cc(NC(=O)CCc2nc(-c3ccc(F)cc3Cl)no2)no1 = 9.15

* * *

bioavailability by entry:
Assay: Oral bioavailability in rat at 10 mg/kg
Format: ADME, organism-based
Conditions: in vivo
measurementName: bioavailability (%)

* N#Cc1cc(NC(=O)CCc2nc(-c3ccc(F)cc3Cl)no2)cnc1OCC(F)(F)F | 36
* O=C(CCc1nc(-c2ccc(F)cc2Cl)no1)Nc1ccc(C(F)(F)F)cc1Cl | 13

* * *

Below, each of the compounds is paired with its reported Emax value.
Target: Cannabinoid receptor 2 (Homo sapiens, UniProt P34972)
Test: Agonist activity at human recombinant CB2 receptor expressed in CHO-K1 cells assessed as inhibition of forskolin-stimulated intracellular cAMP level relative to CP-55940
Format: functional, cell-based
measurementName: Emax (%)

• CCn1c2ccccc2c2cc(NC(=O)CCc3nc(-c4ccc(F)cc4C)no3)ccc21 = 100
• N#Cc1cc(NC(=O)CCc2nc(-c3ccc(F)cc3Cl)no2)cnc1OCC(F)(F)F = 97
• CC(C)(C)c1ncc(NC(=O)CCc2nc(-c3ccc(F)cc3Cl)no2)cn1 = 97
• O=C(CCc1nc(-c2ccc(F)cc2Cl)no1)Nc1ccc(C(F)(F)F)c(Cl)c1 = 97
• CCn1c2ccccc2c2cc(NC(=O)CCc3nc(-c4ccc(F)cc4Cl)no3)ccc21 = 100
• CC(C)(C)c1ncc(OCCCc2nc(-c3ccc(F)cc3Cl)no2)cn1 = 91
• CCn1c2ccccc2c2cc(NC(=O)CCc3nc(-c4ccc(F)cc4)no3)ccc21 = 95
• Fc1ccc(-c2noc(CCCNc3cnc4ccc(Cl)cc4c3)n2)c(Cl)c1 = 94
• CCn1c2ccccc2c2cc(NC(=O)CCc3nc(C4CCOCC4)no3)ccc21 = 98
• CC(C)(C)c1cc(NC(=O)CCc2nc(-c3ccc(F)cc3Cl)no2)no1 = 96
• CCn1c2ccccc2c2cc(NC(=O)CCc3nc(-c4ccncc4C#N)no3)ccc21 = 100
• O=C(CCc1nc(-c2ccc(F)cc2Cl)no1)Nc1cnc2ccc(Cl)cc2c1 = 99
• Fc1ccc(-c2noc(CCCOc3cnc4ccc(Cl)cc4c3)n2)c(Cl)c1 = 99
• CCn1c2ccccc2c2cc(NC(=O)CCc3nc(-c4ccc(F)cc4C#N)no3)ccc21 = 110
• O=C(CCc1nc(-c2ccc(F)cc2Cl)no1)Nc1cnc2ncc(Cl)cc2c1 = 97
• O=C(CCc1nc(-c2ccc(F)cc2Cl)no1)Nc1ccc(C(F)(F)F)nc1 = 96
• O=C(CCc1nc(-c2ccc(F)cc2Cl)no1)Nc1nc2ccc(OC(F)(F)F)cc2s1 = 99
• O=C(CCc1nc(-c2ccc(F)cc2Cl)no1)Nc1ccc(C(F)(F)F)cc1 = 94
• O=C(CCc1nc(-c2ccc(F)cc2Cl)no1)Nc1nnc(N2CCCCC2)s1 = 98
• Fc1ccc(-c2noc(CCCNc3cnc4ccc(OC(F)(F)F)cc4c3)n2)c(Cl)c1 = 110

* * *

Biological target: Cannabinoid receptor 1 (Homo sapiens)
Sequence (P21554 whole entry): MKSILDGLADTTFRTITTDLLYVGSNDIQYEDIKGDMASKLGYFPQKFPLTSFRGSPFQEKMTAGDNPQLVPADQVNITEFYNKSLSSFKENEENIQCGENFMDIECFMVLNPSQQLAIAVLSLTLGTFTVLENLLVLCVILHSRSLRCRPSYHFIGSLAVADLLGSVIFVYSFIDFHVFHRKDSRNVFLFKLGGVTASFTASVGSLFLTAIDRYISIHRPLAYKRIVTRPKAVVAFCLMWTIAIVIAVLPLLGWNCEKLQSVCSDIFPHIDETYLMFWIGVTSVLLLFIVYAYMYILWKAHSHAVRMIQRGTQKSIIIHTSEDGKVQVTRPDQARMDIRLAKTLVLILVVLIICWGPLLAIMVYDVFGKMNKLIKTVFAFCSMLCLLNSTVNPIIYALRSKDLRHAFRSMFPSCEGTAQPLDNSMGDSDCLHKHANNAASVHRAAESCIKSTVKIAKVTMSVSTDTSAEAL
Experiment: Agonist activity at human recombinant CB1 receptor expressed in Sf9 cells by GTP-europium binding assay relative to CP-55940
measurementName: Emax (%)

* Fc1ccc(-c2noc(CCCNc3nc4ccc(Cl)cc4s3)n2)c(Cl)c1 | 16
* O=C(CCc1nc(-c2ccc(F)cc2Cl)no1)Nc1cnc2ccc(Cl)cc2c1 | 82
* CC(C)(C)c1ncc(OCCCc2nc(-c3ccc(F)cc3Cl)no2)cn1 | 99
* CC(C)(C)c1cc(NCCCc2nc(-c3ccc(F)cc3Cl)no2)no1 | 33
* O=C(CCc1nc(-c2ccc(F)cc2Cl)no1)Nc1cnc2ncc(Cl)cc2c1 | 43

* * *

Experiment: Cmax in rat at 10 mg/kg, po
Format: ADME, organism-based
Set-up: dose 10 mg/kg, route oral
Settings: in vivo
Below: a set of entries, each annotated with reported Cmax.
measurementName: Cmax (ng/mL)

- N#Cc1cc(NC(=O)CCc2nc(-c3ccc(F)cc3Cl)no2)cnc1OCC(F)(F)F: 3400
- O=C(CCc1nc(-c2ccc(F)cc2Cl)no1)Nc1ccc(C(F)(F)F)cc1Cl: 100
- Fc1ccc(-c2noc(CCCNc3cnc4ccc(Cl)cc4c3)n2)c(Cl)c1: 8400
- CCn1c2ccccc2c2cc(NC(=O)CCc3nc(-c4ccccc4F)no3)ccc21: 100

* * *

microsomal CLint for assorted compounds
Assay: Metabolic stability in rat liver microsomes
Assay type: ADME, Microsome
Conditions: read-out: Stability
measurementName: microsomal CLint

• O=C(CCc1nc(-c2ccc(F)cc2Cl)no1)Nc1cnc2ccc(Cl)cc2c1 = < 100 µL/min/mg
• O=C(CCc1nc(-c2ccc(F)cc2Cl)no1)Nc1nnc(N2CCCCC2)s1 = < 100 µL/min/mg
• CCn1c2ccccc2c2cc(NC(=O)CCc3nc(-c4ccccc4F)no3)ccc21 = 198 µL/min/mg
• O=C(CCc1nc(-c2ccc(F)cc2Cl)no1)Nc1cnc2ncc(Cl)cc2c1 = < 100 µL/min/mg
• O=C(CCc1nc(-c2ccc(F)cc2Cl)no1)Nc1nc2ccc(OC(F)(F)F)cc2s1 = < 100 µL/min/mg

* * *

Experiment: Half life in rat at 10 mg/kg, po
Format: ADME, organism-based
Design: dose 10 mg/kg, route oral
Settings: in vivo
measurementName: half-life

• Fc1ccc(-c2noc(CCCNc3cnc4ccc(Cl)cc4c3)n2)c(Cl)c1 = 5.1 h
• N#Cc1cc(NC(=O)CCc2nc(-c3ccc(F)cc3Cl)no2)cnc1OCC(F)(F)F = 3.1 h
• O=C(CCc1nc(-c2ccc(F)cc2Cl)no1)Nc1ccc(C(F)(F)F)cc1Cl = 1.6 h
• CCn1c2ccccc2c2cc(NC(=O)CCc3nc(-c4ccccc4F)no3)ccc21 = 1.6 h

* * *

Biological target: Cannabinoid receptor 2 (Homo sapiens, UniProt P34972)
Assay: Agonist activity at human recombinant CB2 receptor expressed in CHO-K1 cells assessed as inhibition of forskolin-stimulated intracellular cAMP level
Type: functional, cell-based
pEC50: −log10 of the molar value.
Use TRUE when the recorded pEC50 is no lower than 8; use FALSE when it is lower.

• O=C(CCc1nc(-c2ccc(F)cc2Cl)no1)Nc1ccc(C(F)(F)F)cc1 = FALSE
• CCn1c2ccccc2c2cc(NC(=O)CCc3nc(-c4ccc(F)cc4C#N)no3)ccc21 = TRUE
• O=C(CCc1nc(-c2ccc(F)cc2Cl)no1)Nc1ccc(C(F)(F)F)nc1 = FALSE
• N#Cc1cc(NCCCc2nc(-c3ccc(F)cc3Cl)no2)cnc1OCC(F)(F)F = FALSE
• Fc1ccc(-c2noc(CCCNc3cnc4ccc(OC(F)(F)F)cc4c3)n2)c(Cl)c1 = TRUE
• CCn1c2ccccc2c2cc(NC(=O)CCc3nc(-c4ccc(F)cc4Cl)no3)ccc21 = TRUE
• CCn1c2ccccc2c2cc(NC(=O)CCn3nnc(-c4ccccc4F)n3)ccc21 = FALSE
• Fc1ccc(-c2noc(CCCOc3cnc4ccc(Cl)cc4c3)n2)c(Cl)c1 = TRUE

* * *

Target: Cannabinoid receptor 1 (Homo sapiens)
Test: Agonist activity at human recombinant CB1 receptor expressed in Sf9 cells by GTP-europium binding assay relative to CP-55940
Assign t whenever Emax does not fall below 50%; assign f whenever it does.

• CCn1c2ccccc2c2cc(NC(=O)CCc3nc(-c4ccc(F)cc4)no3)ccc21 = t
• CCn1c2ccccc2c2cc(NC(=O)CCc3nc(-c4ccc(F)cc4Cl)no3)ccc21 = t
• CC(C)(C)c1cc(NC(=O)CCc2nc(-c3ccc(F)cc3Cl)no2)no1 = t
• CCn1c2ccccc2c2cc(NC(=O)CCc3nc(-c4ccc(F)cc4C)no3)ccc21 = f
• O=C(CCc1nc(-c2ccc(F)cc2Cl)no1)Nc1ccc(C(F)(F)F)nc1 = f
• O=C(CCc1nc(-c2ccc(F)cc2Cl)no1)Nc1nc2ccc(OC(F)(F)F)cc2s1 = f
• O=C(CCc1nc(-c2ccc(F)cc2Cl)no1)Nc1nnc(N2CCCCC2)s1 = f
• Fc1ccc(-c2noc(CCCOc3cnc4ccc(Cl)cc4c3)n2)c(Cl)c1 = t
• CCn1c2ccccc2c2cc(NC(=O)CCc3nc(-c4ccc(F)cc4C#N)no3)ccc21 = f
